# MEASURED_ON: human α2C‐adrenoceptor (Homo sapiens)
# Sequence (P18825 1-462): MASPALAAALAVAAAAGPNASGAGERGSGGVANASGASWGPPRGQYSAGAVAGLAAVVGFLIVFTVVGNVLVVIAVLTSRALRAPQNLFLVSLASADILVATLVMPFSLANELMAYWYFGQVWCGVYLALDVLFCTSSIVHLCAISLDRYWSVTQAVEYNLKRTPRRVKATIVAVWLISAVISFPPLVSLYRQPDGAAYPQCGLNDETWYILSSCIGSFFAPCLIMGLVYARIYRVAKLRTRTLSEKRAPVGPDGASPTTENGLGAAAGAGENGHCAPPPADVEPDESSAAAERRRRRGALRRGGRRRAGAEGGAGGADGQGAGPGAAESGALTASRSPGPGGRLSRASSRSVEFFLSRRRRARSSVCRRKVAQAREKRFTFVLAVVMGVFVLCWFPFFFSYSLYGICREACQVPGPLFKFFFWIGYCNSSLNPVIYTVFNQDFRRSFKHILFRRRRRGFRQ
# RECORDED_CONDITIONS: CHO‐α2C cells, CRE‐SPAP production in the absence of forskolin
OUTCOME_MEASURE: Log EC50 (Gs), CRE‐SPAP (without forskolin)

In [3]: df
Out[3]:
                                   molecule                            measured_on  reported_measurement
0  Cc1sc(C)c2c1CCC=C2c1cnc[nH]1.O=C(O)/C=C\C(=O)O [T‐CG 1000]  human α2C‐adrenoceptor (Homo sapiens)           No response
1  CCC1(c2cnc[nH]2)Cc2ccccc2C1 [Atipamezole]  human α2C‐adrenoceptor (Homo sapiens)           No response
2     Clc1ccc2nsnc2c1NC1=NCCN1 [Tizanidine]  human α2C‐adrenoceptor (Homo sapiens)           No response
3     C1=C(c2cnc[nH]2)c2ccsc2CC1 [RWJ52353]  human α2C‐adrenoceptor (Homo sapiens)           No response

====

# MEASURED_ON: human α2A‐adrenoceptor (Homo sapiens)
# Sequence (P08913 whole entry): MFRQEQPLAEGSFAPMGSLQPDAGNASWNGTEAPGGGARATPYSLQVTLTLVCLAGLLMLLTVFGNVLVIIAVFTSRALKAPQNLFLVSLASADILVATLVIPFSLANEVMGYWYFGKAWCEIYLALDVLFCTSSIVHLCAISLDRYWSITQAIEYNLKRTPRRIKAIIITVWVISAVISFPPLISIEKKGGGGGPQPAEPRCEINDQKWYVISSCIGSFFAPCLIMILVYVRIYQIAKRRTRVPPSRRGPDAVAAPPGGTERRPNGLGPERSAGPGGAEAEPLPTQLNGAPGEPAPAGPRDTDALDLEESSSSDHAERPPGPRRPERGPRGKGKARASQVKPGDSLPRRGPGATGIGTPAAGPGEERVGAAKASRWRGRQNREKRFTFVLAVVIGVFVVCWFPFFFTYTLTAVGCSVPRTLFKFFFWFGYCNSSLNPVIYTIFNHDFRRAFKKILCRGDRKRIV
OUTCOME_MEASURE: Log EC50 (Gs), CRE‐SPAP (without forskolin)

                                   compound  reported_measurement
0  COc1ccc(CC(C)NCC(O)c2ccc(O)c(NC=O)c2)cc1 (stereo not drawn)           No response
1  CNCC(O)c1ccc(O)cc1 (stereo not drawn) [Synephrine]           No response
2           Cc1cc(C(C)(C)C)cc(C)c1CC1=NCCN1           No response

====

# MEASURED_ON: human α2C‐adrenoceptor (Homo sapiens)
# PROTOCOL_SUMMARY: 3H‐rauwolscine whole cell binding in CHO‐α2C cells
# Set-up: expressed in transfected cells; host or cells: CHO-K1 with CRE-SPAP reporter
# RECORDED_CONDITIONS: 3H‐rauwolscine whole cell binding, living cells; negative log KD, mean ± SEM; read-out: Log KD, CHO‐α2C (converted)
OUTCOME_MEASURE: Kd (µM)
Answer format: numeric, µM implied, no suffix.

Please look up its Kd: `Clc1ccc2nsnc2c1NC1=NCCN1`
1.48

Could you tell me which Kd is on file for CC(CCc1ccc(O)cc1)NCCc1ccc(O)c(O)c1 (stereo not shown) ?
5.5

Requested read-out: Kd. Entry: `NC[C@H](O)c1ccc(O)c(O)c1`
32.4

What does the record list as Kd for `c1ccc(C2CC2)c(OCC2=NCCN2)c1` ?
0.851
